Source of measurements: PubChem BioAssay (NCI)

Reported TGI by item:
- System: HT29 colon
- TEST_DESCRIPTION: NCI tumour cell line growth inhibition, 48 h

INPUT: Can you look up the measured TGI of `COc1ccc(Cn2c(=O)c(OC)c(C)c3cc4ccccc4cc32)cc1` for me?
OUTPUT: > 100 µM

INPUT: Endpoint output: TGI of COc1cc(C2c3cc4c(cc3OC(C)(N3CCCC3)C2C)OCO4)cc(OC)c1OC (stereo unspecified) . Value?
OUTPUT: 0.836 µM

INPUT: Recorded TGI for CCOC(=O)CCC(NC(=O)c1ccc(Nc2nc3ccc(C(F)(F)F)cc3nc2-c2ccccc2)cc1)C(=O)OCC (stereo unspecified) , please?
OUTPUT: > 100 µM

INPUT: Item COc1ccc(C(C#N)NC23CC4CC(CC(C4)C2)C3)cc1 (stereo unspecified) has what recorded TGI?
OUTPUT: > 100 µM

INPUT: Please look up its TGI: `NCCCNCCS`
OUTPUT: > 100 µM

***
INPUT: Which TGI is listed for `O=NNc1ccc2ccccc2n1` ?
OUTPUT: > 100 µM

---

- Test system: NCI-H522 lung
- TEST_DESCRIPTION: NCI tumour cell line growth inhibition, 48 h
Here, each record is paired with measured TGI data.

Use these answered entries as a reference point.
INPUT: Field request: TGI | item: `COc1ccc(Cn2c3c(cc(OC(C)=O)c2=O)Cc2ccccc2-3)cc1`
OUTPUT: 15.1 µM

INPUT: Tell me the measured TGI of `COc1cc(C=O)c(-c2c(C=O)ccc3c2OCO3)c(OC)c1OC` , please.
OUTPUT: > 100 µM

INPUT: Reported TGI, molecule `O=c1oc(-c2ccccc2)cn1-c1ccccc1` : ____
OUTPUT: > 100 µM

INPUT: # input molecule: `CCCCCCNCCc1cnc[nH]1` ; wanted: its TGI
OUTPUT: > 100 µM

INPUT: # get_value(readout='TGI', item= `COc1ccc(C2=C[C@]3(O)CCCN3C[C@@H]2c2ccc(OC)c(OC)c2)cc1` )
OUTPUT: < 0.0001 µM

INPUT: Look up TGI for this molecule: CC(C)(C)C1=C(Br)C(C(C)(C)C)OP1(=O)O (configuration not stated)
OUTPUT: > 100 µM

INPUT: So what's the measured TGI for this one? `Cc1ccc(-n2[nH]nc(C(N)=O)c2=O)cc1`
OUTPUT: > 100 µM

INPUT: Any idea what TGI was measured for `CN(C)CCOc1ccc([N+](=O)[O-])c2cccnc12` ?
OUTPUT: > 100 µM

Further cases:
INPUT: Report TGI for `CN(C)/C=C/C(=CC=[N+](C)C)/C=C/N(C)C` please.
OUTPUT: > 100 µM

INPUT: Which TGI value is on record for COc1ccc(C(C#N)NC23CC4CC(CC(C4)C2)C3)cc1 (configuration not stated) ?
OUTPUT: > 100 µM

INPUT: For the molecule `Nn1c(C23CC4CC(CC(C4)C2)C3)n[nH]c1=S` , what TGI is on record?
OUTPUT: > 100 µM

INPUT: Please give the measured TGI for this molecule: COc1cc(C2c3cc4c(cc3OC(C)(N3CCCC3)C2C)OCO4)cc(OC)c1OC (configuration not stated)
OUTPUT: 0.612 µM
